Tested on: P388 leukemia ip, CD2F1 mice, survival T/C
Assay: NCI In Vivo Anticancer Drug Screen. Data for tumor model P388 Leukemia (intraperitoneal) in CD2F1 (CDF1) mice
Conditions: endpoint: median survival time; dose: 200.0 mg/kg/injection; schedule: Q01DX005 (ip); vehicle: Klucel (hydroxypropylcellulose) (HPC); higher = longer survival
Toxic doses and inconclusive results are not listed. Square brackets hold non-standard residues; d marks the D form. Peptide text beside a SMILES is read from it. * marks the point of attachment. Trt = c1ccc(C(c2ccccc2)(c2ccccc2)*)cc1; Cbz = O=C(OCc1ccccc1)*; Nva = CCC[CH](N)C(=O)O; Boc = CC(C)(C)OC(=O)*; Bn = c1ccc(C*)cc1; βAla = NCCC(=O)O
quantity-name: T/C

Task: Suppose we examine the compound `CC(C)OCCCNCC(=O)Nc1ccc(S(=O)(=O)c2ccc(NC(=O)CNCCCOC(C)C)cc2)cc1` ; what T/C value has been reported?
Result: 100 % of control

Task: Recorded T/C for `O=C1CCOCCCOCCC(=O)OCCCO1` , please?
Result: 101 % of control

Task: Look up T/C: `O=[N+]([O-])c1ccccc1N=Nc1c(O)sc2ccccc12`
Result: 91 % of control

Task: Consider the compound shown here: `OCCOc1ccc(OCCO)c2ccccc12` What is its recorded T/C?
Result: 100 % of control

Could I get T/C for every one of these entries?
1. O=C1NC(=O)C2(Br)Nc3ccc(Br)cc3C(=O)C2N1 (stereo not drawn)
2. Cc1ccc(C)c2c1C(=O)c1c(C)ccc(C)c1C2=O
3. O=C(O)c1c2c(nc3ccccc13)-c1ccccc1C2
4. Cc1nc2[nH]ncc2c(=O)n1-c1ccccc1
5. CCOC(=O)c1n[nH]c(=S)[nH]c1=O
6. COc1ccc2c(C)cc(N/N=C\c3cccc4ccccc34)nc2c1
7. CC(SCCCCCCSC(C)C(=O)O)C(=O)O (stereo not drawn)
8. Cn1c(=O)oc2cc(N)c(Br)cc21

Result:
90 % of control
86 % of control
89 % of control
100 % of control
101 % of control
106 % of control
95 % of control
94 % of control

The following compounds each have a reported value; give each one's T/C.
1. COC(=O)C(CSC(c1ccccc1)(c1ccccc1)c1ccccc1)NC(=O)C(CSCc1ccccc1)NC(=O)CCNC(=O)OCc1ccccc1 (stereo not drawn) ({Cbz-βAla}-Cys(Bn)-Cys(Trt)-OMe; configuration not given here)
2. COC1OC(CO)C(O)C(O)C1N1C(=O)c2ccccc2C1=O (stereo not drawn)
3. CCOC(=O)C(CCC(=O)O)NC(=O)C(CCSC)NC(=O)OC(C)(C)C (stereo not drawn) (Boc-Met-Glu-OEt; configuration not given here)
4. Cc1[nH][nH]c(=O)c1C=Nc1ccccc1
5. c1cnc2c(c1)ccc1ncccc12
6. Nc1cc(Cl)cc2c1-c1ccc(Cl)cc1C2=O

Result:
1. 103 % of control
2. 97 % of control
3. 97 % of control
4. 95 % of control
5. 97 % of control
6. 89 % of control

# map each compound to its T/C
1. Cc1ccc(S(=O)(=O)NC(=O)n2nc(C)cc2C)cc1
2. Nc1cc2nc3ccccc3c(=O)n2[nH]1
3. C1=C(CC[Si]23OCCN(CCO2)CCO3)CCCC1
4. CCCC(NC(=O)OCc1ccccc1)C(=O)NC(C(=O)O)C(C)CC (stereo not drawn) (Cbz-[Nva]-Ile-OH; configuration not given here)

Result:
1. 103 % of control
2. 86 % of control
3. 103 % of control
4. 101 % of control

Task: So what does the record say about T/C for C/C=C/C=C/C(=O)CCC1(C)OC(=O)C(C)=C1O (stereo not drawn) ?
Result: 93 % of control

----------
System: P388 leukemia ip, CD2F1 mice, survival T/C
Assay: NCI In Vivo Anticancer Drug Screen. Data for tumor model P388 Leukemia (intraperitoneal) in CD2F1 (CDF1) mice
Conditions: endpoint: median survival time; dose: 200.0 mg/kg/injection; schedule: Q01DX005 (ip); vehicle: saline with Tween-80; higher = longer survival
Toxic doses and inconclusive results are not listed.
quantity-name: T/C

Solved cases below.
Task: # query: T/C of entry `N#Cc1c(C(=O)NN)c2c(-c3ccc4ccccc4c3)n[nH]c(=O)c2[nH]c1=O`
Result: 86 % of control

Task: Would you mind telling me what T/C value was observed for NC(Cc1c(Br)[nH]c2ccccc12)C(=O)O (stereo not drawn) ?
Result: 104 % of control

Others:
Task: Query (molecule): `COc1cc2nc3cc([N+](=O)[O-])ccc3c(Cl)c2cc1OC` ; field requested: T/C
Result: 89 % of control

----------
Test system: P388 leukemia ip, CD2F1 mice, survival T/C
Test: NCI In Vivo Anticancer Drug Screen. Data for tumor model P388 Leukemia (intraperitoneal) in CD2F1 (CDF1) mice
Details: endpoint: median survival time; dose: 120.0 mg/kg/injection; schedule: Q01DX005 (ip); vehicle: Klucel (hydroxypropylcellulose) (HPC); higher = longer survival
Toxic doses and inconclusive results are not listed.
quantity-name: T/C

Answered cases to consult:
Task: Reported T/C for P388 leukemia ip, CD2F1 mice, survival T/C, given CC1CCCCN1C=C1C(=O)OC(C)(C)OC1=O (stereo not given) ?
Result: 96 % of control

Task: P388 leukemia ip, CD2F1 mice, survival T/C / T/C / `Clc1ccc(C2=NNC(c3ccc(Cl)cc3)=NN2)cc1` : value?
Result: 102 % of control

Task: What measured T/C is associated with `Cc1nc(N)[nH]c(=O)c1CCCCC#N` on P388 leukemia ip, CD2F1 mice, survival T/C?
Result: 104 % of control

Task: Param readout = T/C; param system = P388 leukemia ip, CD2F1 mice, survival T/C; param query = COc1cc(NCC2COc3c(ccc(OC)c3OC)C2=O)c([N+](=O)[O-])cc1OC (stereo not given) ; response: value
Result: 92 % of control

Task: Given the entry CC(=O)OC1C=CCC2C(=O)c3cccc(O)c3C(=O)C12 (stereo not given) , what T/C was observed with P388 leukemia ip, CD2F1 mice, survival T/C?
Result: 105 % of control

Take each entry in turn and give its T/C.
1. COc1cccc(/C=C2/C(=O)N(c3ccc([N+](=O)[O-])cc3)N=C2C)c1
2. Cc1csc2nc(-c3cccs3)nn12
3. COC(=O)C1(N2CCOCC2)CCC([C@@H](c2ccccc2)C(C)[N+](=O)[O-])C1 (stereo not given in full)
4. CCOc1ccc(-c2nc(Cl)nc(Cl)n2)c2ccccc12

Result:
["98 % of control", "103 % of control", "98 % of control", "111 % of control"]

Task: Field: T/C (P388 leukemia ip, CD2F1 mice, survival T/C). Entry: `Nc1ccccc1Nc1c([N+](=O)[O-])cc(C(F)(F)F)cc1[N+](=O)[O-]`
Result: 105 % of control

----------
System: P388 leukemia ip, CD2F1 mice, survival T/C
Test: NCI In Vivo Anticancer Drug Screen. Data for tumor model P388 Leukemia (intraperitoneal) in CD2F1 (CDF1) mice
Conditions: endpoint: median survival time; dose: 50.0 mg/kg/injection; schedule: Q01DX009 (ip); vehicle: saline with Tween-80; higher = longer survival
Inconclusive results and toxic doses are left out.
Task for the reader: assign each of the following compounds its reported T/C.

Task: Entry `Oc1cccnc1Cl` has what T/C?
Result: 114 % of control

Task: What value of T/C has been recorded for this entry: `O=C(/C(=C\c1ccccc1)c1ccccc1)c1ccccc1`
Result: 92 % of control

Task: Consider the compound shown here: `O=[N+]([O-])c1ccc2c(Cl)c3ccccc3nc2c1` What is its recorded T/C?
Result: 95 % of control

Continue with the compound presented below.
Task: Param item = `CCCCC(CCCC)=NNC(=S)SC` ; retrieve measured T/C.
Result: 100 % of control

----------
Tested on: P388 leukemia ip, CD2F1 mice, survival T/C
Assay: NCI In Vivo Anticancer Drug Screen. Data for tumor model P388 Leukemia (intraperitoneal) in CD2F1 (CDF1) mice
Conditions: endpoint: median survival time; dose: 60.0 mg/kg/injection; schedule: Q01DX005 (ip); vehicle: Klucel (hydroxypropylcellulose) (HPC); higher = longer survival
Inconclusive results and toxic doses are left out.
quantity-name: T/C

// known answers, use as guide
Task: # get_value(readout='T/C', item= `Clc1ccc2c(c1)[N+](=c1ccc3nc4cc(Cl)ccc4sc-3c1)c1ccccc1S2.[Cl][Cu][Cl]` )
Result: 95 % of control

Task: Which value of T/C has been reported for `CCOC(=O)/C(C#N)=C/NCC1CC1` in the records?
Result: 102 % of control

Task: Fill blank: measured T/C of the molecule `COC(=O)c1nc(N)nc(C(=O)OC)c1C(=O)c1ccc2ccccc2c1` is ____.
Result: 102 % of control

Task: Field request: T/C | item: COc1ccc(C2SCC(=O)N2c2nncs2)cc1F (stereo not drawn)
Result: 92 % of control

For each of the molecules below, state T/C.
1. c1ccc2c(c1)Cc1c-2n[nH]c1-c1[nH]nc2c1Cc1ccccc1-2
2. CCOC(=O)Cn1/c(=N/N=C/c2ccc([N+](=O)[O-])o2)sc2cc(OC)ccc21
3. CC1=CC(=C2C(=O)c3ccccc3C2=O)C=C(C)O1
4. CC1(C)OC(=O)C(=CN(C2CCCCC2)C2CCCCC2)C(=O)O1
5. COc1cc(NCC2COc3c(ccc(OC)c3OC)C2=O)c([N+](=O)[O-])cc1OC (stereo not drawn)
6. COC(=O)c1c(C)oc(C)c1-c1ccc(OCc2ccccc2)c(OC)c1

Result:
["96 % of control", "87 % of control", "95 % of control", "96 % of control", "90 % of control", "114 % of control"]

Please give T/C for each item listed below.
1. O=C1C2=C(Nc3ccccc3N2)OC1c1ccccc1Cl (stereo not drawn)
2. O=C1NC(=O)N(c2ccccc2)C(=O)/C1=C/c1ccc2c(c1)CCC2
3. CCOC(=O)C(Nc1cc([N+](=O)[O-])ccc1C(=O)N1CCCCC1)(C(=O)OCC)N1CCCCC1

Result:
1. 97 % of control
2. 95 % of control
3. 96 % of control
